# credit: PubChem BioAssay AID256

# System: CD2F1 mice, L1210 leukemia ip, survival T/C
# TEST_SUMMARY: NCI In Vivo Anticancer Drug Screen. Data for tumor model L1210 Leukemia (intraperitoneal) in CD2F1 (CDF1) mice
# CONDITION_DESCRIPTION: endpoint: mean survival time; dose: 3.13 mg/kg/injection; schedule: Q01DX009 (ip); vehicle: saline with Tween-80; higher = longer survival
Inconclusive results and toxic doses are left out.
Recorded T/C by entry

Identify measured T/C corresponding to Nc1nc(-c2ccc([N+](=O)[O-])cc2)c([N+](=O)[O-])c(=O)[nH]1
96 % of control

Report T/C, nothing else, for this compound: ClCCN(Cc1ccccc1)Cc1ccccc1
100 % of control

State its T/C: O=C1CSC(=S)N1/N=C/c1ccc(Cl)c(Cl)c1
100 % of control

Given CC(/C=N/O)=N\O.CC(/C=N/O)=N\O.[Pd] , respond with its T/C.
95 % of control

Tell us which T/C value is on record for O=C1CC2CC1C1C3CCC(CC3)C21 (stereo not given)
86 % of control
